- Assay comment: inhibitors of TNFa-induced NFkB p65 translocation, primary screen, imaging, HUVEC, MLSMR starter and 10KST1 sets (AID 438);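 also: compound added about 3h40 before a 20 min TNFalpha stimulation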
- Stated conditions: HUVEC TNFa-induced p65 nuclear translocation; measured here: nuclei count (cytotoxicity indicator), at 2.08 µM
Provide the recorded cell count for the entries that follow.
Reply briefly: the number, and no unit.

input: // fetch cell count given entry CCOC(=O)c1ccc2nc(C)c3c(c2c1)OC(C)C3 (stereo unspecified)
output: 308

input: // fetch cell count given entry COc1ccc(N2CCN(c3ccc(N)cc3C#N)CC2)cc1
output: 744

input: // fetch cell count given entry CCCS(=O)(=O)N1CCN(C(=O)c2cccnc2)CC1
output: 374

input: // fetch cell count given entry CSc1nc(=NC(C)=O)ss1
output: 723

input: // fetch cell count given entry COc1ccc(-c2c(C(F)(F)F)oc3c(CN4CCN(C)CC4)c(O)ccc3c2=O)cc1
output: 555

input: // fetch cell count given entry O=C1C(Cl)=C(NCC2CCCO2)C(=O)N1CCc1ccccc1 (stereo unspecified)
output: 711

----------
- Assay comment: endothelial E-selectin expression blockers – imaging, HUVEC, immunofluorescence, MLSMR starter and 10KST1 sets, primary screen (AID 487);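 also: signal is fraction of cell area covered by stained E-selectin grains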
- Stated conditions: HUVEC TNFalpha-induced E-selectin immunofluorescence imaging, at 2 µM; stronger effect = higher value
Property label: inhibition (%)
Write it as a number; the unit % goes unstated.

input: // fetch inhibition given entry COc1ccc(-c2cc3c(=O)n(CC(=O)NC4CCN(Cc5ccccc5)CC4)ncn3n2)cc1
output: 2.5

input: // fetch inhibition given entry Cn1cnc2c1c(=O)n(Cc1cccc(Br)c1)c(=O)n2C
output: -17.1

input: // fetch inhibition given entry COc1ccc(-c2cc(C(F)(F)F)nc(N3CCN(c4ccc(F)cc4)CC3)n2)cc1OC
output: -107

input: // fetch inhibition given entry COc1ccccc1NC(=O)CSC1CC(=O)N(c2ccc3c(c2)OCO3)C1=O (stereo not given)
output: -109

input: // fetch inhibition given entry COc1ccc(C2CC(=O)C(C=NCCCN3CCOCC3)=C(O)C2)cc1 (stereo not given)
output: 3

input: // fetch inhibition given entry CCOC(=O)C1CCCN(CCC(C)c2ccccc2)C1 (stereo not given)
output: 25

input: // fetch inhibition given entry N#CC1=C(N)S[C@H](C(=O)C23CC4CC(CC(C4)C2)C3)[C@H]1c1ccncc1
output: -10.8

input: // fetch inhibition given entry CC12CN3CC(C)(CN(C1)C3c1ccc(Cl)cc1Cl)C2=O (stereo not given)
output: -21.6

input: // fetch inhibition given entry COc1c(S(=O)(=O)n2nc(C)cc2C)ccc(Cl)c1Cl
output: -25.3

input: // fetch inhibition given entry CC(C)Cc1nc2oc3c(N4CCN(CCO)CC4)ncnc3c2c2c1CCCC2
output: 6.5

input: // fetch inhibition given entry Cc1cc(C)n2cc(CSc3nnnn3C)nc2n1
output: 36.6

input: // fetch inhibition given entry Cc1c(C(=O)O)c(-c2ccccc2)nn1-c1ccccc1
output: -11.7

input: // fetch inhibition given entry COc1ccc(CNC(=O)CN(C(=O)c2ccc(CN3CCOCC3)o2)C2CCCC2)cc1
output: -94.6

input: // fetch inhibition given entry CCS(=O)(=O)c1nc2ccccc2n1Cc1ccccc1Cl
output: -31.4

input: // fetch inhibition given entry O=C(c1ccc2c(c1)OCCO2)C1CCN(C(=O)c2ccc(F)cc2)CC1
output: -77.5

input: // fetch inhibition given entry O=C1c2ccccc2C(=O)N1C/C=C/CN1C(=O)c2ccccc2C1=O
output: -12.9

input: // fetch inhibition given entry Cc1nnc2ccc(N3CCN(c4cccc(C(F)(F)F)c4)CC3)nn12
output: -68.3

input: // fetch inhibition given entry CCCCSc1nnc([C@H](C)NC(=O)OC(C)(C)C)o1
output: -34.4

input: // fetch inhibition given entry COc1cccc(-c2cc(C(=O)NCc3ccc(Cl)cc3)no2)c1
output: 13.3

input: // fetch inhibition given entry O=c1c2c(-c3ccccc3)csc2nc2n1CCC2
output: 20.1

input: // fetch inhibition given entry Cc1cccc(Cc2c(C)nc3nc(SCC(=O)NCc4ccco4)nn3c2C)c1
output: -79.7

input: // fetch inhibition given entry CSCCC(NC(=O)c1occc1C)C(=O)O (stereo not given)
output: -91.1

input: // fetch inhibition given entry Cc1cc(C)c2c(n1)nn1c(N3CCOCC3)cc(C)nc21
output: -56.5

input: // fetch inhibition given entry Cc1sc2nc(CN3CCN(S(=O)(=O)c4cccc5nonc45)CC3)[nH]c(=O)c2c1C
output: -55.1

input: // fetch inhibition given entry CC1Cc2nc(SCC(=O)Nc3ccccc3F)n(C)c(=O)c2S1 (stereo not given)
output: -15

input: // fetch inhibition given entry O=C(Nc1cccc(Cl)c1)N1CCN(Cc2ccccc2)CC1
output: -40

input: // fetch inhibition given entry CCn1c(=O)c2cc(S(=O)(=O)NCc3ccccc3)ccc2n(CC)c1=O
output: 0.2

input: // fetch inhibition given entry O=C(Nc1cccnc1)c1cccc(NC(=O)c2ccco2)c1
output: 13.4

input: // fetch inhibition given entry Cc1ccc(C)c(-n2c(CNC(=O)c3ccco3)nnc2SCC(=O)Nc2nnc(C)s2)c1
output: 3.7

input: // fetch inhibition given entry Nc1ncnc2nc(Sc3ccc(Cl)cc3)[nH]c12
output: -12.5

input: // fetch inhibition given entry O=S(=O)(c1ccc2ccccc2c1)N1CCCCC1
output: 20.8

input: // fetch inhibition given entry COC(=O)C(C)NC(=O)C12CC3CC(CC(C3)C1)C2 (stereo not given)
output: -31

input: // fetch inhibition given entry COc1cccc(NC(=O)c2ccco2)c1
output: 32.9

input: // fetch inhibition given entry CCN(C1CCCCC1)S(=O)(=O)c1ccc(S(=O)(=O)N2CCN(CCC#N)CC2)cc1
output: -28.6

input: // fetch inhibition given entry COCCn1nnnc1CN(Cc1cccnc1)Cc1cc2cc(OC)ccc2[nH]c1=O
output: -11.6

input: // fetch inhibition given entry O=C(NCC(=O)N1CCC(N2CCCCC2)CC1)C1CCCCC1
output: 10.2

input: // fetch inhibition given entry O=C(NCc1ccco1)c1ccc2c(=O)n(CC3CCCO3)c(=S)[nH]c2c1 (stereo not given)
output: -7.4

input: // fetch inhibition given entry CC(C)Oc1ccc(N2CC(C(=O)Nc3ccccc3F)CC2=O)cc1 (stereo not given)
output: -110

input: // fetch inhibition given entry O=C(Nc1ccc(N2CCOCC2)cc1)c1cc2ccccc2o1
output: -29.4

input: // fetch inhibition given entry Cc1ccc(N(C)C(=O)N2CCN(c3ccccn3)CC2)cc1
output: -41

input: // fetch inhibition given entry CCOC(=O)c1sc2cccc(F)c2c1N
output: 4.5

input: // fetch inhibition given entry CCOC(=O)N1CCN(c2c(N3CCN(c4ccccn4)CC3)c(=O)c2=O)CC1
output: -24.6

input: // fetch inhibition given entry CC(C)n1c(CN2CCN(C)CC2)nc2c1c(=O)n(C)c(=O)n2C
output: -24.8

input: // fetch inhibition given entry O=C(NCCN1C(=O)C2C3C=CC(C3)C2C1=O)N1CCCCC1 (stereo not given)
output: 3.5

input: // fetch inhibition given entry CCOc1ccccc1CN(Cc1ccco1)S(=O)(=O)c1ccc(-n2cnnn2)c(OC)c1
output: 4.1
